{"columns": ["molecule", "melting point"],
 "data": [
  ["CCOC(=O)c1sc2ncc(C(=O)OC)cc2c1N", "213 to 215 °C"],
  ["Cc1n[nH]c(-c2ccccn2)n1", "167 to 169 °C"],
  ["CCN(c1ccccc1)S(=O)(=O)c1cc(C(=O)O)ccc1C", "160 to 162 °C"],
  ["Cc1cc(C)c2nc(C3CC3)cc(C(=O)O)c2c1", "207 to 209 °C"],
  ["Nc1ccccc1NS(=O)(=O)c1ccccc1", "169 to 171 °C"],
  ["O=C(Nc1ccccc1C(=O)O)c1ccc(Cl)cc1", "208 to 210 °C"],
  ["COc1ccc(S(=O)(=O)N(C)C)cc1N", "192 to 194 °C"],
  ["O=S(=O)(Cl)CCOc1ccccc1", "37 to 39 °C"],
  ["Nc1ccc(-c2csc(N)n2)cc1", "178 to 180 °C"],
  ["C#CCNC(=O)C(C)Cl (stereo unspecified)", "61 to 63 °C"],
  ["NC(=O)C1CCc2ccccc2N1 (stereo unspecified)", "115 to 117 °C"]
]}

* * *

Examples of molecules with documented melting point follow.
measured_quantity: melting point

{"columns": ["molecule", "measured_quantity", "recorded_result"],
 "data": [
  ["Nc1ccc(CN2CCOC2=O)cc1", "melting point", "99 to 101 °C"],
  ["Clc1ccccc1Nc1nc2ccccc2s1", "melting point", "126 to 128 °C"],
  ["Cc1nc2nc(C(F)(F)F)nn2c(C)c1CCC(=O)O", "melting point", "123 to 125 °C"],
  ["O=C(O)CCc1nc2ccccc2c(=O)n1C1CC1", "melting point", "183 to 185 °C"],
  ["Cc1cc(NS(=O)(=O)c2cccc(C#N)c2)no1", "melting point", "159 to 161 °C"],
  ["COC(=O)c1ccc(C)c(NC(=O)CCl)c1", "melting point", "135 to 137 °C"],
  ["CNS(=O)(=O)c1csc(C(=O)O)c1", "melting point", "170 to 172 °C"],
  ["CS(=O)(=O)c1cc(S(=O)(=O)Cl)ccc1F", "melting point", "112 to 114 °C"],
  ["Nc1cc(CC2CCCC2)no1", "melting point", "67 to 69 °C"],
  ["O=C(O)c1cc(Br)cnc1S", "melting point", "239 to 241 °C"],
  ["O=Cc1ccc(Oc2cccc([N+](=O)[O-])c2)cc1", "melting point", "59 to 61 °C"],
  ["Cc1nc2ccccc2c(=O)n1-c1ccc(Br)cc1", "melting point", "176 to 178 °C"],
  ["Fc1ccc(Br)c(-c2nn[nH]n2)c1", "melting point", "193 to 195 °C"],
  ["Cc1ccc(S(=O)(=O)C2(C(=O)O)CCC2)cc1", "melting point", "105 to 107 °C"],
  ["N#Cc1cnn(-c2ncccn2)c1N", "melting point", "320 to 322 °C"],
  ["COc1ccc(S(=O)(=O)Nc2cccnc2)cc1N", "melting point", "153 to 155 °C"],
  ["CC(C)NCc1nnc(-c2ccc([N+](=O)[O-])cc2)o1", "melting point", "175 to 182 °C"],
  ["N#Cc1nc(Cl)cc(N)c1N", "melting point", "249 to 251 °C"],
  ["O=c1cc(O)nc(S)n1-c1ccc(Cl)cc1", "melting point", "188 to 190 °C"],
  ["COC(=O)c1cccc(C(=O)O)n1", "melting point", "149 to 151 °C"],
  ["O=[N+]([O-])c1cccc2cc(I)cnc12", "melting point", "118 to 120 °C"],
  ["CC(O)c1ccc(I)cc1 (configuration not stated)", "melting point", "43 to 45 °C"]
]}

* * *

Examples of compounds with documented melting point follow.

{"columns": ["compound", "melting point"],
 "data": [
  ["COc1ccc(-n2ccc(C(=O)O)n2)cc1", "182 to 184 °C"],
  ["N#Cc1ccccc1Oc1ccc(N)cc1", "118 to 120 °C"],
  ["CCc1n[nH]c(=O)c(C#N)c1CC", "166 to 168 °C"],
  ["O=Cc1ccc(C(=O)O)cc1Cl", "218 to 220 °C"],
  ["O=C(O)CCc1nc(-c2ccoc2)no1", "143 to 145 °C"],
  ["Cc1cccc2c(=O)[nH]c(CCl)nc12", "190 to 192 °C"],
  ["Cc1c(C)c(C)c(C(=O)CCl)c(C)c1C", "70 to 72 °C"],
  ["Cc1ccc(SC(C(=O)O)c2ccccc2)c(C)c1 (stereo not drawn)", "130 to 132 °C"]
]}

* * *

Examples of compounds with documented melting point follow.

{"columns": ["compound", "melting point"],
 "data": [
  ["Cc1sc2nc(CCl)[nH]c(=O)c2c1C", "190 to 192 °C"],
  ["COc1ccc(S(=O)(=O)N2CCNCC2)cc1OC", "145 to 147 °C"],
  ["Cc1ncc(C(=O)O)c(=O)[nH]1", "310 to 312 °C"],
  ["O=C(O)Cc1csc(NC(=O)OCC(F)(F)F)n1", "182 to 184 °C"],
  ["Nc1ccccc1C(=O)NCC1CCCO1 (stereo unspecified)", "78 to 80 °C"],
  ["Cn1c(S)nnc1-c1ccccc1Cl", "144 to 146 °C"],
  ["Cc1sc(N)c(C(N)=O)c1C", "179 to 181 °C"],
  ["Cc1ccc(S)nc1", "199 to 201 °C"],
  ["O=C(O)C1=NOC(c2ccccc2)C1 (stereo unspecified)", "102 to 104 °C"],
  ["O=C(O)C1Cc2ccccc2N1 (stereo unspecified)", "168 to 170 °C"],
  ["Nc1ncc(Cc2c(Cl)cccc2Cl)s1", "139 to 141 °C"],
  ["Cc1ccc(C(=O)C(Br)CC(=O)O)cc1 (stereo unspecified)", "116 to 118 °C"],
  ["COC(=O)C(=O)Nc1ccc(C)cc1", "147 to 149 °C"],
  ["CC1CNC(=Nc2cccc3cccnc23)S1 (stereo unspecified)", "92 to 94 °C"],
  ["O=C(O)Cc1cnc2ccccc2c1", "201 to 203 °C"],
  ["Nc1nc2c(Cl)c(Cl)ccc2s1", "129 to 131 °C"]
]}

* * *

Examples of compounds with documented melting point follow.
measured_quantity: melting point

{"columns": ["compound", "recorded_result"],
 "data": [
  ["N#Cc1cccnc1NCc1ccccc1Cl", "111 to 113 °C"],
  ["c1cncc(-c2ncn[nH]2)c1", "173 to 175 °C"],
  ["Cc1ccc(-n2c(C)nnc2S)cc1", "98 to 100 °C"],
  ["Cc1cccc(Nc2nnc(S)s2)c1", "196 to 198 °C"],
  ["CC1CC(=O)c2c(O)ccc(Cl)c21 (centres undefined)", "55 to 57 °C"],
  ["CNS(=O)(=O)c1ccc(Cl)c(C(=O)O)c1Cl", "136 to 138 °C"],
  ["COc1ccccc1NS(=O)(=O)c1ccc(NN)c([N+](=O)[O-])c1", "181 to 183 °C"],
  ["COc1ccc(C(=O)N2CCOCC2)cc1N", "150 to 152 °C"],
  ["Nc1cc(-n2cnnn2)ccc1Cl", "159 to 161 °C"]
]}

* * *

measured_quantity: melting point

{"columns": ["given_smiles", "recorded_result"],
 "data": [
  ["COCc1cc([N+](=O)[O-])ccc1N", "83 to 85 °C"],
  ["O=c1ccc(S(=O)(=O)c2ccccc2)n[nH]1", "182 to 184 °C"],
  ["CCn1c(=O)cc(N)n(Cc2ccccc2)c1=O", "106 to 108 °C"],
  ["NC(=NO)c1ccc(N2CCN(c3ccc(F)cc3)CC2)nc1", "191 to 193 °C"],
  ["O=C(O)c1cc(S(=O)(=O)Cl)c(F)cc1Cl", "144 to 146 °C"],
  ["Cc1nc(-c2cccnc2)[nH]c(=O)c1CC(=O)O", "263 to 265 °C"],
  ["CNS(=O)(=O)c1cccc(S(=O)(=O)Cl)c1", "98 to 100 °C"],
  ["CCSc1ccc(CC(=O)O)cc1", "74 to 76 °C"]
]}

* * *

measured_quantity: melting point

{"columns": ["compound", "recorded_result"],
 "data": [
  ["NC(=O)C1CCNc2ccccc21 (stereo not drawn)", "119 to 121 °C"],
  ["CC(Cl)c1nnc(-c2ccc([N+](=O)[O-])cc2)o1 (stereo not drawn)", "161 to 163 °C"],
  ["CC(C)(C)c1nn(-c2ccccc2Cl)cc1C=O", "111 to 113 °C"],
  ["O=C(O)C(=O)c1ccc(Br)cc1O", "188 to 190 °C"],
  ["CNc1c(F)cccc1C(=O)O", "134 to 136 °C"],
  ["CCC(CC)C(=O)N1CCC(=NO)CC1", "101 to 103 °C"],
  ["CCCCCCn1nc(C(=O)O)c2ccccc2c1=O", "124 to 126 °C"],
  ["O=C(O)CSc1nnnn1CC(F)(F)F", "135 to 137 °C"],
  ["Cn1cc(C(=O)CBr)c2ccccc21", "132 to 134 °C"],
  ["CCn1c(S)nnc1-c1ccc(Cl)cc1", "211 to 213 °C"],
  ["O=C1NCCNC1c1cccc(Br)c1 (stereo not drawn)", "117 to 119 °C"],
  ["CCOC(=O)c1oc2ccc(Br)cc2c1C", "89 to 91 °C"],
  ["O=C(O)c1cnc(C2CC2)s1", "187 to 189 °C"],
  ["ClCc1cc(Cl)c2c(c1)OCCCO2", "59 to 63 °C"],
  ["O=[N+]([O-])c1cccc2ncnc(O)c12", "239 to 241 °C"],
  ["Cn1cc(C=CC(=O)O)c2ccccc21", "139 to 141 °C"],
  ["NS(=O)(=O)c1ccccc1O", "135 to 137 °C"],
  ["NC(=O)c1cnc(Cl)c(Cl)c1", "204 to 206 °C"],
  ["CC1Oc2ncccc2NC1=O (stereo not drawn)", "225 to 227 °C"],
  ["CC(C)C(Br)C(=O)N1CCc2ccccc2C1 (stereo not drawn)", "90 to 92 °C"],
  ["CC(C)C(=O)N(C)Cc1ccc(C(=O)O)cc1", "139 to 141 °C"],
  ["Sc1nnc(-c2ccncc2)[nH]1", "308 to 313 °C"],
  ["CC(C)Cn1cc(C(=O)O)c2ccccc21", "151 to 153 °C"],
  ["COC(=O)c1cc(-c2cccc(C(F)(F)F)c2)ccc1N", "72 to 74 °C"],
  ["COC(=O)COc1ccc(C(=O)O)cc1OC", "170 to 172 °C"],
  ["N#Cc1cccc(C2(C(=O)O)CC2)c1", "182 to 184 °C"],
  ["COC(=O)c1nc2ncc3c(n2n1)C(=O)OCC3", "197 to 199 °C"],
  ["O=C(O)C(=O)NCCCc1ccccc1", "120 to 122 °C"]
]}
